B1: Transcription factor SOX-11, residues 50 to 117; numbered along this chain, P35716 (parent)
chain: KRPMNAFMVWSKIERRKIMEQSPDMHNAEISKRLGKRWKMLKDSEKIPFIREAERLRLKHMADYPDYK

- Variants of: B1
- PROTOCOL TEXT: abundance fitness (aPCA) (normalised: wild type 0, dead -1); higher = more abundant; growth selection in yeast, the domain comes from the species named
- ASSAY CONDITIONS: Homo sapiens
For each record, write down the corresponding abundance fitness.
Just the number, please, no unit attached.

abundance fitness measured on E29C = -0.767

abundance fitness measured on K39E = -0.075

abundance fitness measured on S31T = 0.029

abundance fitness measured on Q21Y = -0.581

abundance fitness measured on N27E = 0.333

abundance fitness measured on M19N = -0.426

abundance fitness measured on G35Y = 0.126

abundance fitness measured on R55Y = -0.43

abundance fitness measured on N27M = -0.287

abundance fitness measured on M40N = -0.022

abundance fitness measured on E29Q = -0.517

abundance fitness measured on H26T = 0.453

abundance fitness measured on L34N = -0.82

abundance fitness measured on R33P = -0.75

abundance fitness measured on A28P = -0.562

abundance fitness measured on W38E = -1.27

abundance fitness measured on L41Q = -0.721

abundance fitness measured on Q21V = -0.223

abundance fitness measured on M19Q = -0.202

abundance fitness measured on M25T = -0.317

abundance fitness measured on E45N = -0.439

abundance fitness measured on R33D = 0.169

abundance fitness measured on S31D = 0.176

abundance fitness measured on E45T = -0.942

abundance fitness measured on W38D = -0.696

abundance fitness measured on K32V = -0.101

abundance fitness measured on W38K = -0.375

abundance fitness measured on I47M = 0.101

abundance fitness measured on K42Y = -0.525

abundance fitness measured on I30M = -0.711

abundance fitness measured on G35E = 0.519

abundance fitness measured on S44I = 0.005

abundance fitness measured on D24L = -0.507

abundance fitness measured on S31C = -0.2

abundance fitness measured on D43F = -0.047

abundance fitness measured on M40S = 0.023

abundance fitness measured on D43Y = -0.191

abundance fitness measured on S31Y = -0.262

abundance fitness measured on K46A = -0.871

abundance fitness measured on N27L = -0.279

abundance fitness measured on H26L = -0.146

abundance fitness measured on R33A = 0.22

abundance fitness measured on R33N = -0.008

abundance fitness measured on G35V = 0.25

abundance fitness measured on S44K = -0.492

abundance fitness measured on D43G = -0.402

abundance fitness measured on I30V = 0.039

abundance fitness measured on M40Q = 0.361

abundance fitness measured on H26I = -0.266

abundance fitness measured on K32I = -0.145

abundance fitness measured on S31V = -0.064

abundance fitness measured on S22T = -0.072

abundance fitness measured on R37T = 0.205

abundance fitness measured on A28W = -0.425

abundance fitness measured on R33W = 0.125

abundance fitness measured on K46W = -0.995

abundance fitness measured on H26R = -0.106

abundance fitness measured on S22E = -0.112

abundance fitness measured on D43L = -0.077

abundance fitness measured on R37C = -0.346

abundance fitness measured on M25A = -0.141

abundance fitness measured on L34K = -1.29

abundance fitness measured on D43M = -0.079

abundance fitness measured on M25W = -0.715

abundance fitness measured on W38G = -0.865

abundance fitness measured on R37A = 0.117

abundance fitness measured on D24P = -0.836
